# Assayed Target: huPD1 (human) (UniProt Q15116)
# Sequence (Q15116 25-170 limits assumed): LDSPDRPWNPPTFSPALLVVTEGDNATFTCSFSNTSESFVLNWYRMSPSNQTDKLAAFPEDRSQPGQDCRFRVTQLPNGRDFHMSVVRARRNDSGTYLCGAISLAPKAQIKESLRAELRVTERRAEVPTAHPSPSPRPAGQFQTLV
# Protocol Notes: biosensor kinetics (BLI type); antibody captured on anti-human Fc biosensor, PD-1 in solution
pKd: −log10 of the molar value.
Kindly return criterion met if reported pKd is no lower than 7; return criterion not met if it is lower.

Solved cases below.
INSERT INTO measurements (binder, class_assignment) VALUES
  ('TA102 (antibody, V domains shown, Fc SEQ 587, CL SEQ 416) VH: DVQLVESGGGVVRPGESLRLSCAASGFTFRNYDMTWVRQAPGEGLEWVATISGTDDTTYYADSVKGRATISRDNSNNTLYLRLFSLRAEDTAIYYCAREASNSFIDYWGLGTLVTVSS VL: QSVLTQPPSASGTPGQRVTISCSGSSSNIGRRYVYWYQQLPGTAPKLLIYRNFERPSGVPDRFSGSKSGTSASLAISGLQSEDEADYYCASWDESLNGWVFGGGTKLTVL', 'criterion met'),
  ('TA132 (antibody, V domains shown, Fc SEQ 587, CL SEQ 416) VH: EVQLLESGGAFVQPGGSLRLSCAASGFTFSDYYMSWVRQAPGKGLEWVSVISNSGGSTYYTDSVKGRFTISRDNSKNTLYLQINSLRAEDTAVYYCTKDIGMTYFDYWGQGTLVTVSS VL: QSVLTQPPSASGAPGQRVTISCSGSYSNIGNSYVSWYQQLPGTAPKLLIYLNSQRPSGVPDRFSGSKSGTSASLAISGLQSEDEADYYCAAWDDLNVWVFGGGTKLTVL', 'criterion met'),
  ('TA275 (antibody, V domains shown, Fc SEQ 587, CL SEQ 416) VH: QVTLKESGPGILQPSQTLSLTCSFSGFSLSTFGMGVGWIRQPSGKGLEWLAHIWWDDDKYYNPALKSRLTISKDTSKNQVFLKIANVDTADTATYYCARIPTRYWYFDVWGTGTTVTVSS VL: QAVVTQESALTTSPGETVTLTCRSSTGAVTTSNYANWVQEKPDHLFTGLIGGTNNRAPGVPARFSGSLIGDKAALTITGAQTEDEAIYFCALWYSTHYVFGGGTKVTVL', 'criterion not met'),
  ('TA104 (antibody, V domains shown, Fc SEQ 587, CL SEQ 416) VH: DVQLVESGGGVARPGESLRLSCAASGFTFRDYDMGWVRQAPGEGLEWVSSISVSGTTYYADSVKGRFTISRDNSENTLYLQMNSLTAEDTAVYYCGREDTLFHYWGLGTLVTVSS VL: QSVLTQPPSASGTPGQRVTISCSGSTSNIGTRYVYWYQQLPGTAPKLLIYKNLQRPSGVPDRFSGSKSGTSASLAISGLQSEDEADYYCAAWDERLNGWVFGGGTKLTVL', 'criterion met'),
  ('TA289 (antibody, V domains shown, Fc SEQ 587, CL SEQ 416) VH: QVTLKESGPGILQPSQTLSLTCSFSGFSLSTFGMGVGWIRQPSGKGLEWLAHIWWDDDKYYNPALKSRLTISKDTSKNQVFLKIANVDTADTATYYCARIRGTWWYFDVWGTGTTVTVSS VL: QAVVTQESALTTSPGETVTLTCRSSTGAVTTSNYANWVQEKPDHLFTGLIGGTNNRAPGVPARFSGSLIGDKAALTITGAQTEDEAIYFCALWYSNQFIFGSGTKVTVL', 'criterion not met');

# input for lookup
(Q) Decide: pKd of TA101 (antibody, V domains shown, Fc SEQ 587, CL SEQ 416) VH: DVQLVESGGGVARPGEFLRLSCAASGFTFRDYDMGWVRQAPGEGLEWVSSISVSGTTYYADSVKGRFTISRDNSENTLYLQMNSLTAEDTAVYYCGREDTLFHYWGLGTLVTVSS VL: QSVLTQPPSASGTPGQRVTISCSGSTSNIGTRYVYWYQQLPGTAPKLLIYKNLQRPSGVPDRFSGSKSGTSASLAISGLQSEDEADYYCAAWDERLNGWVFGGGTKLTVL >= 7?
(A) criterion met
